All figures here come from the antibiotic and cytotoxicity screens of Wong et al. (2023).

tested on: HepG2; assay: cytotoxicity call (relative viability < 0.9); details: 10 µM
In all, about 39,000 compounds went through this assay and about 3,300 (8.5%) were called active. The full list was thinned out, with actives kept by preference.
Possible outcomes: active, inactive

>  <structure>
COc1cc2c(cc1OC)CN(CCc1ccc(NC(=O)c3cccc4c(=O)c5cccc(OC)c5[nH]c34)cc1)CC2

>  <targetOrTestSystem>
HepG2

>  <category>
inactive

$$$$
>  <structure>
C[C@H]1CN([C@@H](C)CO)C(=O)c2cc(NS(=O)(=O)c3ccc(Cl)cc3)ccc2O[C@@H]1CN(C)Cc1ccc(C(F)(F)F)cc1

>  <targetOrTestSystem>
HepG2

>  <category>
inactive

$$$$
>  <structure>
COc1ccc(C2=C(NC(=O)c3ccc(OC)cc3-c3cccc(OC)c3)C(=O)c3ccccc3C2=O)cc1

>  <targetOrTestSystem>
HepG2

>  <category>
active

$$$$
>  <structure>
C[C@@H]1CCCCO[C@H](CN(C)C(=O)Nc2ccccc2)[C@H](C)CN([C@H](C)CO)C(=O)c2cc(NC(=O)CCC(F)(F)F)ccc2O1

>  <targetOrTestSystem>
HepG2

>  <category>
inactive

$$$$
>  <structure>
CC(=O)n1cc([C@@H]2C=C(C(=O)N3CCCCCCC3)O[C@H](OCc3ccc(CO)cc3)C2)c2ccccc21

>  <targetOrTestSystem>
HepG2

>  <category>
inactive

$$$$
>  <structure>
C[C@H]1CCCCO[C@H](CN(C)S(=O)(=O)c2ccc(Cl)cc2)[C@@H](C)CN([C@@H](C)CO)C(=O)c2cc(NC(=O)c3ccccc3)ccc2O1

>  <targetOrTestSystem>
HepG2

>  <category>
active

$$$$
>  <structure>
CC(C)(C[C@H]1CN(S(=O)(=O)c2cccc(C(F)(F)F)c2)c2cc(-c3cc(F)cc(OC(F)F)c3)ccc2O1)C(=O)O

>  <targetOrTestSystem>
HepG2

>  <category>
inactive

$$$$
>  <structure>
CC(C)CC#Cc1ccc2c(c1)O[C@H](CN(C)Cc1cncnc1)[C@H](C)CN([C@@H](C)CO)S2(=O)=O

>  <targetOrTestSystem>
HepG2

>  <category>
inactive

$$$$
>  <structure>
C[C@H]1CN([C@@H](C)CO)C(=O)c2cc(NS(=O)(=O)c3ccc(Cl)cc3)ccc2O[C@H]1CN(C)Cc1ccc(C(F)(F)F)cc1

>  <targetOrTestSystem>
HepG2

>  <category>
inactive

$$$$
>  <structure>
C[C@@H]1CN([C@@H](C)CO)C(=O)c2cc(NS(=O)(=O)c3ccc(Cl)cc3)ccc2O[C@@H]1CN(C)Cc1ccc(C(F)(F)F)cc1

>  <targetOrTestSystem>
HepG2

>  <category>
active

$$$$
>  <structure>
C[C@H](CO)N1C[C@H](C)[C@H](CN(C)Cc2ccc(C(F)(F)F)cc2)Oc2ccc(NS(=O)(=O)c3ccc(Cl)cc3)cc2C1=O

>  <targetOrTestSystem>
HepG2

>  <category>
active

$$$$
>  <structure>
C[C@@H]1CCCCO[C@@H](CN(C)C(=O)C2CCCCC2)[C@H](C)CN([C@H](C)CO)C(=O)c2cc(NC(=O)c3ccncc3)ccc2O1

>  <targetOrTestSystem>
HepG2

>  <category>
inactive

$$$$
>  <structure>
C[C@H]1CN([C@@H](C)CO)C(=O)CCCn2cc(nn2)CO[C@@H]1CN(C)C(=O)Nc1cccc2ccccc12

>  <targetOrTestSystem>
HepG2

>  <category>
inactive

$$$$
>  <structure>
C[C@@H]1CN([C@H](C)CO)C(=O)c2cc(NS(=O)(=O)c3ccc(Cl)cc3)ccc2O[C@@H]1CN(C)Cc1ccc(C(F)(F)F)cc1

>  <targetOrTestSystem>
HepG2

>  <category>
active

$$$$
>  <structure>
C[C@H](CO)N1C[C@H](C)[C@H](CN(C)S(=O)(=O)c2ccc(Cl)cc2)OCCCC[C@H](C)Oc2ccc(NC(=O)c3ccccc3)cc2C1=O

>  <targetOrTestSystem>
HepG2

>  <category>
inactive

$$$$
>  <structure>
C[C@H](CO)N1C[C@H](C)[C@H](CN(C)C(=O)Cc2ccccc2)OCCCC[C@H](C)Oc2ccc(NC(=O)CCC(F)(F)F)cc2C1=O

>  <targetOrTestSystem>
HepG2

>  <category>
inactive

$$$$
>  <structure>
COc1cc2c(cc1OC)CN(CCc1ccc(-n3nnc(-c4cc(OC)c(OC)cc4NC(=O)c4cc(=O)c5ccccc5o4)n3)cc1)CC2

>  <targetOrTestSystem>
HepG2

>  <category>
inactive

$$$$
>  <structure>
C[C@H](CO)N1C[C@H](C)[C@H](CN(C)Cc2ccc(Cl)c(Cl)c2)Oc2ccc(NC(=O)Nc3ccc(F)cc3)cc2CC1=O

>  <targetOrTestSystem>
HepG2

>  <category>
active

$$$$
>  <structure>
COc1cc2c(cc1OC)CN(CCc1ccc(NC(=O)c3cc(OC)c(OC)cc3NC(=O)c3cnc4ccccc4c3)cc1)CC2

>  <targetOrTestSystem>
HepG2

>  <category>
active

$$$$
>  <structure>
C[C@@H]1CN([C@@H](C)CO)C(=O)c2cc(NS(=O)(=O)c3ccc(Cl)cc3)ccc2O[C@H]1CN(C)Cc1ccc(C(F)(F)F)cc1

>  <targetOrTestSystem>
HepG2

>  <category>
inactive

$$$$
>  <structure>
C[C@H](CO)N1C[C@H](C)[C@@H](CN(C)Cc2ccc(C(F)(F)F)cc2)Oc2ccc(NS(=O)(=O)c3ccc(Cl)cc3)cc2C1=O

>  <targetOrTestSystem>
HepG2

>  <category>
active

$$$$
>  <structure>
COc1cccc(S(=O)(=O)N[C@H]2C=C[C@H](CC(=O)NC3CCC3)O[C@H]2CO)c1

>  <targetOrTestSystem>
HepG2

>  <category>
inactive

$$$$
>  <structure>
O=C(OCc1cccc(O)c1O[C@@H]1O[C@H](CO)[C@@H](O)[C@H](O)[C@H]1O)[C@]1(O)C(=O)[C@@H]2C=C[C@H]1c1c2ccc(O)c1O

>  <targetOrTestSystem>
HepG2

>  <category>
inactive

$$$$
